The following binders are listed with their measured % Inhibition of JEG-3 cell invasion, 5 µg/ml (first test) values.
Assayed System: T1, MMP-26 (human)
T1 sequence: ASDF
Assay Name: cell-based or functional assay
Respond with the bare value in %.

C11 (antibody, human IgG4, V domains shown) VH: EVQLLESGGGLVQPGGSLRLSCAASGFTFSEYPMWWVRQAPGKGLEWVSWIYPSGGNTDYADSVKGRFTISRDNSKNTLYLQMNSLRAEDTAVYYCAIPYCSSSSCPLHWGQGTLVTVSS VL: QSELTQPPSASGSPGQSVTISCTGTSSDVGGYNYVSWYQQHPDKAPKLLIYEVTQRPSGVPDRFSGSRSGNTASLTVSGLQAEDEADYYCSSYAGRNNLYVFGPGTKVTVLG    28

// C01 (antibody, human IgG4, V domains shown) VH: EVQLLESGGGLVQPGGSLRLSCAASGFTFSNYGMSWVRQAPGKGLEWVSVIGPSGGITMYADSVKGRFTISRDNSKNTLYLQMNSLRAEDTAVYYCATGSSSGWYPNFDYWGQGTLVTVSS VL: DIQMTQSPSTLSASVGDRVTITCRASQSIGNWLAWYQQKPGEAPHLLIYQASSLEGGVPSRFSGSGSGTKFTLNISSLQPDDFATYYCQQYNSYSYTFGQGTKLDIKR : % Inhibition of JEG-3 cell invasion, 5 µg/ml (first test) value = 43

// C12 (antibody, V domains shown) VH: EVQLLESGGGLVQPGGSLRLSCAASGFTFSAYNMMWVRQAPGKGLEWVSRIYPSGGYTLYADSVKGRFTISRDNSKNTLYLQMNSLRAEDTAVYYCARQKLMIRAVRPFDYWGQGTLVTVSS VL: QSELTQPPSVSVSPAQTASITCSGDKLGDKYACWYQQKPGQSPVLVIYEDTKRPSGIPERFSGSNSGNTATLTISGTQVMDEADYYCQVWDSSTAVFGGGTKLTVLG : % Inhibition of JEG-3 cell invasion, 5 µg/ml (first test) value = 49

// A11 (antibody, human IgG4, V domains shown) VH: EVQLLESGGGLVQPGGSLRLSCAASGFTFSWYTMMWVRQAPGKGLEWVSRISPSGGHTLYADSVKGRFTISRDNSZNTLYLQMNSLRAEDTAVYYCARDTWDDYYDSSGYYNDFDYWGQGTLVTVSS VL: QSALTQPPSVSLAPGQTARITCGGNNIGTKSVHWYQQKPGQAPVLVVYDDSDRPSGIPERFSGSNSGNTATLTISRVEAGDEADYYCQVWDSGSDHQVFGGGTKLTVLG : % Inhibition of JEG-3 cell invasion, 5 µg/ml (first test) value = 28
